Reference source for all entries: paper PMC9697187

experiment: Single dose pharmacokinetics of orally administered MPV in SPF cats; assay type: in vivo, cat; conditions: male, serum, po, 10 mg/kg, 10 mg/kg oral molnupiravir, mean of 3 cats
MEASURED ATTRIBUTE: CL/F (mL/min/kg)
Quick reminder: number only, in mL/min/kg, skip the unit.

Item `CC(C)C(=O)OC[C@H]1O[C@@H](n2ccc(NO)nc2=O)[C@H](O)[C@@H]1O` : provide CL/F
5780

----------
assay: Single dose pharmacokinetics of orally administered MPV in SPF cats; type: in vivo, cat; details: male, serum, po, 10 mg/kg, 10 mg/kg oral molnupiravir, mean of 3 cats; read-out: Vz/F of MPV
MEASURED ATTRIBUTE: Vd/F (L/kg)
Quick reminder: number only, in L/kg, skip the unit.

Item `CC(C)C(=O)OC[C@H]1O[C@@H](n2ccc(NO)nc2=O)[C@H](O)[C@@H]1O` : provide Vd/F
881
